Recorded values, source ChEMBL document CHEMBL1124553.

Tested on: Rattus norvegicus
Protocol notes: Concentration of compound in rat brain after intravenous injection of 20 mg/kg benzyl-penicillin after 3 min
Assay type: functional, organism-based
Set-up: dose 20 mg/kg
Parameter: Concentration (µg/mL)
Give a bare numeral; the unit µg/mL is implied.

The examples below pair each entry with its known result.
Compound: CN1C=CCC(C(=O)OCCOC(=O)C2N3C(=O)C(NC(=O)Cc4ccccc4)C3SC2(C)C)=C1 (centres undefined)
Parameter: Concentration
Numeric readout: 3.5
//
Compound: CC1(C)S[C@@H]2[C@H](NC(=O)Cc3ccccc3)C(=O)N2[C@H]1C(=O)O
Parameter: Concentration
Numeric readout: 1.3
//
Compound: CN1C=c2ccccc2=C(C(=O)NCCOC(=O)C2N3C(=O)C(NC(=O)Cc4ccccc4)C3SC2(C)C)C1 (centres undefined)
Parameter: Concentration
Numeric readout: 0.2

Let us examine a further case.
Lab book: Concentration of CN1C=CCC(C(=O)NCCOC(=O)C2N3C(=O)C(NC(=O)Cc4ccccc4)C3SC2(C)C)=C1 (centres undefined) noted as 0.3

----------
Tested on: Rattus norvegicus
Protocol notes: Concentration of compound in rat blood after intravenous injection of 20 mg/kg benzyl-penicillin after 5 min
Type: functional, organism-based
Parameters: dose 20 mg/kg
Below: a set of entries, each annotated with reported Concentration.
Reply with just the number (in µg/mL).

Past entries and their recorded results:
Compound: CN1C=c2ccccc2=C(C(=O)NCCOC(=O)C2N3C(=O)C(NC(=O)Cc4ccccc4)C3SC2(C)C)C1 (centres undefined)
Tgt: Rattus norvegicus
Concentration (µg/mL): 2.5

Compound: CN1C=CCC(C(=O)NCCOC(=O)C2N3C(=O)C(NC(=O)Cc4ccccc4)C3SC2(C)C)=C1 (centres undefined)
Tgt: Rattus norvegicus
Concentration (µg/mL): 3.8

Compound: CC1(C)S[C@@H]2[C@H](NC(=O)Cc3ccccc3)C(=O)N2[C@H]1C(=O)O
Tgt: Rattus norvegicus
Concentration (µg/mL): 22.8

Continue with the compound presented below.
Lookup result for CN1C=CCC(C(=O)OCCOC(=O)C2N3C(=O)C(NC(=O)Cc4ccccc4)C3SC2(C)C)=C1 (centres undefined) ; measured Concentration: 10.7

----------
Protocol notes: Half-life for disappearance of compound from rat 10% brain homogenate
Type: ADME
Parameter: log10(half-life) (log10 of the value in min)
Values reflect log10 of reported half-life (min).

Solved cases (3 shown):
Molecule: CN1C=CCC(C(=O)OCCOC(=O)C2N3C(=O)C(NC(=O)Cc4ccccc4)C3SC2(C)C)=C1 (stereo not drawn)
log10(half-life): 0.38

Molecule: CN1C=CCC(C(=O)OCOC(=O)C2N3C(=O)C(NC(=O)Cc4ccccc4)C3SC2(C)C)=C1 (stereo not drawn)
log10(half-life): -0.22

Molecule: C[n+]1cccc(C(=O)NCCOC(=O)C2N3C(=O)C(NC(=O)Cc4ccccc4)C3SC2(C)C)c1.[I-] (stereo not drawn)
log10(half-life): 1.96

molecule C[n+]1cccc(C(=O)OCOC(=O)C2N3C(=O)C(NC(=O)Cc4ccccc4)C3SC2(C)C)c1.[I-] (stereo not drawn) , log10(half-life) observed: -0.22

Lookup result for C[n+]1cccc(C(=O)OCCOC(=O)C2N3C(=O)C(NC(=O)Cc4ccccc4)C3SC2(C)C)c1.[I-] (stereo not drawn) ; measured log10(half-life): 1.45

Lookup result for C[n+]1cc(C(=O)NCCOC(=O)C2N3C(=O)C(NC(=O)Cc4ccccc4)C3SC2(C)C)c2ccccc2c1.[I-] (stereo not drawn) ; measured log10(half-life): 1.87

GET /value?item= CN1C=c2ccccc2=C(C(=O)NCCOC(=O)C2N3C(=O)C(NC(=O)Cc4ccccc4)C3SC2(C)C)C1 (stereo not drawn) &field=log10(half-life) returns 1.45

// sample CN1C=CCC(C(=O)NCCOC(=O)C2N3C(=O)C(NC(=O)Cc4ccccc4)C3SC2(C)C)=C1 (stereo not drawn) , its log10(half-life) was 0.76

----------
Species: Rattus norvegicus
Protocol notes: Pseudo first-order rate constant (K) for disappearance of compound from rat 10% brain homogenate
Type: ADME
log10 of K for assorted compounds
Please be aware that the numbers have been log10-transformed from K in min⁻¹.

Compound: CN1C=CCC(C(=O)NCCOC(=O)C2N3C(=O)C(NC(=O)Cc4ccccc4)C3SC2(C)C)=C1 (stereo not drawn)
log10 of K: -0.90
--
Compound: C[n+]1cccc(C(=O)NCCOC(=O)C2N3C(=O)C(NC(=O)Cc4ccccc4)C3SC2(C)C)c1.[I-] (stereo not drawn)
log10 of K: -2.10
--
Compound: CN1C=CCC(C(=O)OCCOC(=O)C2N3C(=O)C(NC(=O)Cc4ccccc4)C3SC2(C)C)=C1 (stereo not drawn)
log10 of K: -0.53

# context switch: different compound, same log10 of K
Lab book: log10 of K of C[n+]1cccc(C(=O)OCCOC(=O)C2N3C(=O)C(NC(=O)Cc4ccccc4)C3SC2(C)C)c1.[I-] (stereo not drawn) noted as -1.60

----------
Protocol notes: Half-life for disappearance of compound from rat whole blood
Type: ADME, organism-based
Parameter: log10 of half-life (log10 of the value in min)
Would you kindly interpret these values as log10 of half-life expressed in min?

Known log10 of half-life results, listed for orientation:
Molecule: C[n+]1cc(C(=O)NCCOC(=O)C2N3C(=O)C(NC(=O)Cc4ccccc4)C3SC2(C)C)c2ccccc2c1.[I-] (stereo not given)
log10 of half-life: 0.78

Molecule: C[n+]1cccc(C(=O)NCCOC(=O)C2N3C(=O)C(NC(=O)Cc4ccccc4)C3SC2(C)C)c1.[I-] (stereo not given)
log10 of half-life: 0.28

Molecule: C[n+]1cccc(C(=O)OCCOC(=O)C2N3C(=O)C(NC(=O)Cc4ccccc4)C3SC2(C)C)c1.[I-] (stereo not given)
log10 of half-life: 0.20

Molecule: CN1C=CCC(C(=O)NCCOC(=O)C2N3C(=O)C(NC(=O)Cc4ccccc4)C3SC2(C)C)=C1 (stereo not given)
log10 of half-life: -0.52

get_value(item= CN1C=c2ccccc2=C(C(=O)NCCOC(=O)C2N3C(=O)C(NC(=O)Cc4ccccc4)C3SC2(C)C)C1 (stereo not given) , readout=log10 of half-life) returns -0.22

----------
Species on record: Rattus norvegicus
Protocol notes: Pseudo first-order rate constant (K) for disappearance of compound from rat 10% brain homogenate
Type: ADME
Parameter: K
In your response, the unit should come after the numeric value.

In the examples that follow, each entry is paired with its recorded K.
Molecule: CN1C=c2ccccc2=C(C(=O)NCCOC(=O)C2N3C(=O)C(NC(=O)Cc4ccccc4)C3SC2(C)C)C1 (centres undefined)
K: 0.025 min⁻¹
//
Molecule: C[n+]1cccc(C(=O)OCOC(=O)C2N3C(=O)C(NC(=O)Cc4ccccc4)C3SC2(C)C)c1.[I-] (centres undefined)
K: 0.949 min⁻¹
//
Molecule: CN1C=CCC(C(=O)OCOC(=O)C2N3C(=O)C(NC(=O)Cc4ccccc4)C3SC2(C)C)=C1 (centres undefined)
K: 1.357 min⁻¹

Record summary for C[n+]1cc(C(=O)NCCOC(=O)C2N3C(=O)C(NC(=O)Cc4ccccc4)C3SC2(C)C)c2ccccc2c1.[I-] (centres undefined) : reported K = 0.01 min⁻¹
